Target: Recombinant protein Claudin 18.2
Sequence (chain, as listed by the source limits assumed, form in doubt): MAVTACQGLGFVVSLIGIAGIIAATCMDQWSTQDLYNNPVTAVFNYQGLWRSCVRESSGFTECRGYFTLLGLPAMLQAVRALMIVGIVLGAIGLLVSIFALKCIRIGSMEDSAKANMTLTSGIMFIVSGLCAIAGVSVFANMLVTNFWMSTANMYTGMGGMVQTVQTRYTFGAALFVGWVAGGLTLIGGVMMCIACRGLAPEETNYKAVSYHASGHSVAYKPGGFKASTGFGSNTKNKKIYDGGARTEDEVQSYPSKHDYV
Test: ELISA on plate-coated recombinant Claudin 18.2, OD450; Kd table under the graph, no unit in the table, unit from the x axis log[antibody] nM
reported-metric: Kd (nM)
Could you give me the number in nM? Just the number is fine.

// solved cases for Kd follow
| binder | Kd [nM] |
| --- | --- |
| h5C9op (antibody, V domains shown) VH: EVQLVESGGGLVQPGGSLRLSCAVSGYTFSMNWVRQAPGKGLEWVAWINMYTGEPTYADDFKGRFTISRDDSKNTLYLQMNSLRAEDTAVYYCARTSRGNGMDYWGQGTLVTVSS VL: DIQMTQSPSSLSASVGDRVTITCKSSQSLLNSGNQKSYLTWYQQKPGKAPKLLIYWASTLESGVPSRFSGSGSGTDYTLTISSLQPEDFATYYCQNAYSFPFTFGQGTKVEIK | 0.109 |
| h5C9om (antibody, V domains shown) VH: EVQLVESGGGLVQPGGSLRLSCAVSGYTFSMNWVRQAPGKGLEWVAWINMYTGEPTYADDFKGRFTISRDDSKNTLYLQMNSLRAEDTAVYYCARLARGNGFDYWGQGTLVTVSS VL: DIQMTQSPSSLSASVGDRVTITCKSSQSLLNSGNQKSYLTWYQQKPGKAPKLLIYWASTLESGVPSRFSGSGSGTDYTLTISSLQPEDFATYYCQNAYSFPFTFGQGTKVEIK | 0.1 |
| h5C9ot (antibody, V domains shown) VH: EVQLVESGGGLVQPGGSLRLSCAVSGYTFSMNWVRQAPGKGLEWVAWINMYTGEPTYADDFKGRFTISRDDSKNTLYLQMNSLRAEDTAVYYCARSSMGNGFDYWGQGTLVTVSS VL: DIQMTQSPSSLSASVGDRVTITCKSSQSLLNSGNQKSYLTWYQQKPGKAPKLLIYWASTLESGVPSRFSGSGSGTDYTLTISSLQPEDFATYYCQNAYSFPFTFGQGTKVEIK | 0.0987 |

Input: Dear colleague, I am looking for the recorded Kd of the following binder: h5C9oaq (antibody, V domains shown) VH: EVQLVESGGGLVQPGGSLRLSCAVSGYTFSMNWVRQAPGKGLEWVAWINMYTGEQTYADDFKGRFTISRDDSKNTLYLQMNSLRAEDTAVYYCARLYNGNSLDYWGQGTLVTVSS VL: DIQMTQSPSSLSASVGDRVTITCKSSQSLLNWGNQKSYLTWYQQKPGKAPKLLIYWASTLFSGVPSRFSGSGSGTDYTLTISSLQPEDFATYYCQNAYSFPFTFGQGTKVEIK
Output: 0.203

Input: Also h5C9ow (antibody, V domains shown) VH: EVQLVESGGGLVQPGGSLRLSCAVSGYTFSMNWVRQAPGKGLEWVAWINMYTGEPTYADDFKGRFTISRDDSKNTLYLQMNSLRAEDTAVYYCARLTKGNGMDYWGQGTLVTVSS VL: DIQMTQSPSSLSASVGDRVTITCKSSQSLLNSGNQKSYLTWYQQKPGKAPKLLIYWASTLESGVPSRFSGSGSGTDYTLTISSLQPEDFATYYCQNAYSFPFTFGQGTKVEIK , if possible.
Output: 0.0882
